assay: Comparative bioavailability: single oral 150, 300, 450 mg MNTX tablets vs 12 mg SC injection, crossover; type: in vivo, human; conditions: human, plasma; oral MNTX tablets 150 mg to 450 mg; read-out: median Tmax, range over the oral doses
VALUE_KIND: Tmax

Endpoint output: Tmax of `C[N@+]1(CC2CC2)CC[C@]23c4c5ccc(O)c4O[C@H]2C(=O)CC[C@@]3(O)[C@H]1C5.[Br-]` . Value? 1.5 to 2 h

* * *

test: Study C: single and multiple dose pharmacokinetics of MNTX and metabolites, MNTX 450 mg PO x 7 days; type: in vivo, human; conditions: human, plasma, oral, 450 mg, MNTX tablets 450 mg, multiple dose, cross-study AUCinf comparison; read-out: bioavailability relative to IV multiple dose administration
VALUE_KIND: bioavailability (%)
Report as a plain number; the unit % is understood.

Endpoint output: bioavailability of `C[N@+]1(CC2CC2)CC[C@]23c4c5ccc(O)c4O[C@H]2C(=O)CC[C@@]3(O)[C@H]1C5.[Br-]` . Value? 5.8

* * *

Test: Comparative bioavailability: single oral 150, 300, 450 mg MNTX tablets vs 12 mg SC injection, crossover
Assay type: in vivo, human
Settings: human, plasma, sc, 12 mg, MNTX 12 mg SC Injection; read-out: AUC0-∞, Geometric LSM
Excerpt: The oral dosage levels and formulation of MNTX evaluated here were the same as those in a phase 3 study of oral MNTX tablets, with the exception of a nonfunctional coating on the MNTX tablets. […] The pharmacokinetics of the uncoated tablet used in the phase 3 study and the coated tablets used in the current study were compared in a separate study. […] A single-dose pharmacokinetic profile of oral MNTX tablets was also planned for evaluation in this study. […]
VALUE_KIND: AUC(0-inf) (ng·h/mL)
Report as a plain number; the unit ng·h/mL is understood.

Endpoint output: AUC(0-inf) of `C[N@+]1(CC2CC2)CC[C@]23c4c5ccc(O)c4O[C@H]2C(=O)CC[C@@]3(O)[C@H]1C5.[Br-]` . Value? 266

* * *

assay: Study C: single and multiple dose pharmacokinetics of MNTX and metabolites, MNTX 450 mg PO x 7 days; assay type: in vivo, human; details: human, plasma, po, 450 mg, 450 mg Tablets oral, Day 1, mean; read-out: AUC0-24
VALUE_KIND: AUC(0-t) (ng·h/mL)
Report as a plain number; the unit ng·h/mL is understood.

Endpoint output: AUC(0-t) of `C[N@+]1(CC2CC2)CC[C@]23c4c5ccc(O)c4O[C@H]2C(=O)CC[C@@]3(O)[C@H]1C5.[Br-]` . Value? 280

* * *

test: Study A: single and multiple dose pharmacokinetics after subcutaneous 12 mg methylnaltrexone; assay type: in vivo, human; settings: human, plasma, sc, 12 mg, 12 mg SC Injection, Day 7, mean; read-out: AUC0-24
VALUE_KIND: AUC(0-t) (ng·h/mL)
Report as a plain number; the unit ng·h/mL is understood.

Endpoint output: AUC(0-t) of `C[N@+]1(CC2CC2)CC[C@]23c4c5ccc(O)c4O[C@H]2C(=O)CC[C@@]3(O)[C@H]1C5.[Br-]` . Value? 223

* * *

assay: Study A: single and multiple dose pharmacokinetics after subcutaneous 12 mg methylnaltrexone; type: in vivo, human; conditions: human, plasma; 12 mg SC Injection, day not given, harmonic mean
VALUE_KIND: half-life (h)
Report as a plain number; the unit h is understood.

Endpoint output: half-life of `C[N@+]1(CC2CC2)CC[C@]23c4c5ccc(O)c4O[C@H]2C(=O)CC[C@@]3(O)[C@H]1C5.[Br-]` . Value? 5.33

* * *

experiment: Food effect study: single oral 450 mg MNTX fasted vs high-fat breakfast, 2-period crossover; assay type: in vivo, human; conditions: both sexes, human, plasma, oral, 450 mg, 450 mg single dose, Fasted; read-out: Cmax, Geometric Least Squares Mean
VALUE_KIND: Cmax
Record the result as a number with its unit.

Endpoint output: Cmax of `C[N@+]1(CC2CC2)CC[C@]23c4c5ccc(O)c4O[C@H]2C(=O)CC[C@@]3(O)[C@H]1C5.[Br-]` . Value? 33.4 ng/mL

* * *

assay: Comparative bioavailability: single oral 150, 300, 450 mg MNTX tablets vs 12 mg SC injection, crossover; assay type: in vivo, human; details: human, plasma; MNTX 450 mg Tablet, single oral dose, median; read-out: Tmax
VALUE_KIND: Tmax (h)
Report as a plain number; the unit h is understood.

Endpoint output: Tmax of C[N@+]1(CC2CC2)CC[C@]23c4c5ccc(O)c4O[C@H]2C(=O)CC[C@@]3(O)[C@H]1C5.[Br-] [MNTX] . Value? 2

* * *

assay: Food effect study: single oral 450 mg MNTX fasted vs high-fat breakfast, 2-period crossover; type: in vivo, human; details: both sexes, human, plasma, oral, 450 mg, 450 mg Single-Dose Fasted, median
VALUE_KIND: Tmax (h)
Report as a plain number; the unit h is understood.

Endpoint output: Tmax of `C[N@+]1(CC2CC2)CC[C@]23c4c5ccc(O)c4O[C@H]2C(=O)CC[C@@]3(O)[C@H]1C5.[Br-]` . Value? 2

* * *

test: Study A: single and multiple dose pharmacokinetics after subcutaneous 12 mg methylnaltrexone; format: in vivo, human; details: human, plasma; 12 mg SC Injection, Day 1, mean
VALUE_KIND: AUC(0-inf) (ng·h/mL)
Report as a plain number; the unit ng·h/mL is understood.

Endpoint output: AUC(0-inf) of C[N@+]1(CC2CC2)CC[C@]23c4c5ccc(O)c4O[C@H]2C(=O)CC[C@@]3(O)[C@H]1C5.[Br-] [MNTX] . Value? 223

* * *

assay: Comparative bioavailability: single oral 150, 300, 450 mg MNTX tablets vs 12 mg SC injection, crossover; format: in vivo, human; conditions: human, plasma, oral, 450 mg, MNTX 450 mg Tablet; read-out: AUC0-t, Geometric LSM
VALUE_KIND: AUC(0-t) (ng·h/mL)
Report as a plain number; the unit ng·h/mL is understood.

Endpoint output: AUC(0-t) of C[N@+]1(CC2CC2)CC[C@]23c4c5ccc(O)c4O[C@H]2C(=O)CC[C@@]3(O)[C@H]1C5.[Br-] [MNTX] . Value? 321

* * *

experiment: Study C: single and multiple dose pharmacokinetics of MNTX and metabolites, MNTX 450 mg PO x 7 days; assay type: in vivo, human; conditions: human, plasma, oral, 450 mg, MNTX tablets 450 mg, single dose, cross-study AUCinf comparison; read-out: bioavailability relative to SC injection
VALUE_KIND: bioavailability (%)
Report as a plain number; the unit % is understood.

Endpoint output: bioavailability of `C[N@+]1(CC2CC2)CC[C@]23c4c5ccc(O)c4O[C@H]2C(=O)CC[C@@]3(O)[C@H]1C5.[Br-]` . Value? 3.7

* * *

assay: Study C: single and multiple dose pharmacokinetics of MNTX and metabolites, MNTX 450 mg PO x 7 days; assay type: in vivo, human; conditions: human, plasma, po, 450 mg, 450 mg Tablets oral, Day 7, harmonic mean
VALUE_KIND: half-life (min)
Report as a plain number; the unit min is understood.

Endpoint output: half-life of C[N@+]1(CC2CC2)CC[C@]23c4c5ccc(O)c4O[C@H]2C(=O)CC[C@@]3(O)[C@H]1C5.[Br-] [MNTX] . Value? 1150

* * *

assay: Food effect study: single oral 450 mg MNTX fasted vs high-fat breakfast, 2-period crossover; assay type: in vivo, human; settings: both sexes, human, plasma, oral, 450 mg, 450 mg Single-Dose Fasted, arithmetic mean; read-out: Cmax
VALUE_KIND: Cmax (ng/mL)
Report as a plain number; the unit ng/mL is understood.

Endpoint output: Cmax of `C[N@+]1(CC2CC2)CC[C@]23c4c5ccc(O)c4O[C@H]2C(=O)CC[C@@]3(O)[C@H]1C5.[Br-]` . Value? 45.5

* * *

experiment: Comparative bioavailability: single oral 150, 300, 450 mg MNTX tablets vs 12 mg SC injection, crossover; format: in vivo, human; settings: human, plasma, sc, 12 mg, MNTX 12 mg SC Injection, single dose, mean; read-out: Cmax
VALUE_KIND: Cmax (ng/mL)
Report as a plain number; the unit ng/mL is understood.

Endpoint output: Cmax of C[N@+]1(CC2CC2)CC[C@]23c4c5ccc(O)c4O[C@H]2C(=O)CC[C@@]3(O)[C@H]1C5.[Br-] [MNTX] . Value? 174

* * *

assay: Study C: single and multiple dose pharmacokinetics of MNTX and metabolites, MNTX 450 mg PO x 7 days; assay type: in vivo, human; settings: human, plasma, oral, 450 mg, MNTX tablets 450 mg, multiple dose, cross-study AUCinf comparison; read-out: bioavailability relative to SC multiple dose administration
VALUE_KIND: bioavailability (%)
Report as a plain number; the unit % is understood.

Endpoint output: bioavailability of C[N@+]1(CC2CC2)CC[C@]23c4c5ccc(O)c4O[C@H]2C(=O)CC[C@@]3(O)[C@H]1C5.[Br-] [MNTX] . Value? 4.8
